Biological target: human sphingosine-1-phosphate receptor 1 (S1P1) (Homo sapiens (Human), UniProt P21453)
Test: Inhibition of cAMP production (HTRF cAMP HiRange), S1P1 CHO-K1 cells
Assay type: cell-based
Details: inhibition of cAMP production, S1P1 CHO-K1 cells
Experimental: Stable clonal Chinese hamster ovary K1 (CHO-K1) cells co-expressing EA-β-arrestin2 and the human sphingosine-1-phosphate receptor 1 (NM_001400, S1P1) with a C-terminal Prolink™ tag were purchased from DiscoverX corporation (Cat #: 93-0207C2). […] Agonist-promoted G-protein responses were determined by measuring changes in intracellular cAMP using the HTRF® cAMP HiRange kit (CisBio, Cat #: 62AM6PEJ) based on time-resolved fluorescence resonance energy transfer (TR-FRET) technology. […]
Sequence (P21453 whole entry, looked up): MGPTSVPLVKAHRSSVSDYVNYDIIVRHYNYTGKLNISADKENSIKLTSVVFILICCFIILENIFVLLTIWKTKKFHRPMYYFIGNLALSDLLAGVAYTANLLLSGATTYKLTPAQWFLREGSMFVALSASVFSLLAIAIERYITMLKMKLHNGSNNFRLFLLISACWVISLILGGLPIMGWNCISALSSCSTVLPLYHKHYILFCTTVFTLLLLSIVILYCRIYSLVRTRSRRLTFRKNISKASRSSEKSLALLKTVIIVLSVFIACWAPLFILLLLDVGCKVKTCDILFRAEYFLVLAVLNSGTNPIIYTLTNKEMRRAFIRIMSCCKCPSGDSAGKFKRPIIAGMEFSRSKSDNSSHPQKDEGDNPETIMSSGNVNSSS

| STRUCTURE | hS1P1 cAMP pEC50 |
| --- | --- |
| Cc1ccccc1-c1nc(-c2ccc3c(c2)nnn3C2CCCC2)no1 | <6.5 |
| CC(C)n1nnc2cc(-c3nc(-c4ccccc4C(F)(F)F)co3)ccc21 | >6.5 |
| CC(C)n1nnc2cc(-c3nc(-c4ccc5ccccc5n4)no3)ccc21 | <6.5 |
| CCC1(CC)CC(=O)c2cc(-c3nc(-c4cnccc4C)no3)ccc2O1 | >6.5 |
| Cc1cncc(-c2nc(-c3ccc4c(c3)nnn4C(C)C)no2)n1 | <6.5 |

---

Target: UniProt P21453
Experiment: β-Arrestin2 recruitment assay (PathHunter), S1P1 CHO-K1 cells
Format: cell-based
Conditions: CHO-K1; efficacy (SPAN) normalized to fingolimod; read-out: hS1P1 B-arrestin2 SPAN
Sequence (P21453 whole entry, looked up): as above
Sequence (P32121 whole entry partner, looked up): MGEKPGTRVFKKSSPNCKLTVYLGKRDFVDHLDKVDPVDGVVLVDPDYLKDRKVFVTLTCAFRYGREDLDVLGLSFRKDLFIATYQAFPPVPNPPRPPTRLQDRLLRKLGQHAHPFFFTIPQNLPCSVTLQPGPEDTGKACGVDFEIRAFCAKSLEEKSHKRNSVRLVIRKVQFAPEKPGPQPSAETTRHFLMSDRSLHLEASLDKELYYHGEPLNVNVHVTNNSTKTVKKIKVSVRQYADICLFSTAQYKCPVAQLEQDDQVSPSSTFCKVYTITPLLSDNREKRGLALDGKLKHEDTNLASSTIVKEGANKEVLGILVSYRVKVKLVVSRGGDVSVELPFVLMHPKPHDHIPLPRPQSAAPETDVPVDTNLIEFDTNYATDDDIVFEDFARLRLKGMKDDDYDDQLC
The following compounds are shown together with reported Emax values.

| COMPOUND | Emax |
| --- | --- |
| CC(C)n1nnc2cc(-c3nc(-c4ccncc4C(F)(F)F)no3)ccc21 [Compound 455] | > 75% |
| CCC1(CC)CC(=O)c2cc(-c3nc(-c4ccccc4O)no3)ccc2O1 [Compound 187] | > 75% |
| Cc1ccsc1-c1noc(-c2ccc3c(c2)nnn3C(C)(C)C)n1 [Compound 253] | > 75% |
| CCC1(CC)CC(=O)c2cc(-c3nc(-c4ccncc4OC)no3)ccc2O1 [Compound 212] | < 75% |
| C=CCNc1ccc(-c2ccc(-c3ccc4c(c3)nnn4C(C)C)cc2)cc1C#N [Compound 508] | < 75% |
| Cc1ccccc1-c1noc(-c2ccc3c(c2)nnn3CC(C)C)n1 [Compound 96] | > 75% |
| CC(C)n1nnc2cc(-c3nc(-c4ccccn4)co3)ccc21 [Compound 474] | > 75% |
| CCC1(CC)CC(=O)c2cc(-c3nc(-c4ccc(NS(C)(=O)=O)cc4)no3)ccc2O1 [Compound 262] | > 75% |
| COc1cccc(-c2nc(-c3ccc4c(c3)nnn4C(C)C)no2)c1 [Compound 299] | > 75% |

---

Parameter Emax: see the listing below.
Biological target: human sphingosine-1-phosphate receptor 1 (S1P1) (Homo sapiens (Human), UniProt P21453)
Experiment: β-Arrestin2 recruitment assay (PathHunter), S1P1 CHO-K1 cells
Type: cell-based
Conditions: CHO-K1; efficacy (SPAN) normalized to fingolimod; read-out: hS1P1 B-arrestin2 SPAN

| STRUCTURE | Emax |
| --- | --- |
| COc1cncc(-c2nc(-c3ccc4c(c3)nnn4C(C)C)no2)c1 | < 75% |
| Brc1ccccc1-c1nc(-c2ccc3c(c2)nnn3C2CCCCC2)no1 | > 75% |
| CC(C)n1nnc2cc(-c3noc(-c4ccc(C5CCCCC5)cc4)n3)ccc21 | < 75% |
| CCC1(CC)CC(=O)c2cc(-c3nc(-c4sccc4C)no3)ccc2O1 | < 75% |
| CC(C)n1nnc2cc(-c3nc(-c4ccccc4Cl)co3)ccc21 | > 75% |
